Target: human GRP receptor (human, UniProt P30550 1-384)
Sequence (P30550 whole entry): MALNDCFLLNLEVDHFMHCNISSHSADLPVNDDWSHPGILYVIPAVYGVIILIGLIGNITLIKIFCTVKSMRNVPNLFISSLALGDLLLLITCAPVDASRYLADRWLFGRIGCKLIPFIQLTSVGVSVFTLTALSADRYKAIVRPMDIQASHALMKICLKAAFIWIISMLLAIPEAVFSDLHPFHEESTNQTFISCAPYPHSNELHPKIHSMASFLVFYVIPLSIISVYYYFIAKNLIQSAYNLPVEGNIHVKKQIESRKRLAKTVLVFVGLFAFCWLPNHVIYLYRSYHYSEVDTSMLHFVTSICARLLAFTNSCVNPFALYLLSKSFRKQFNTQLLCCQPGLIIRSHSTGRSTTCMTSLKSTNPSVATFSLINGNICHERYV
Assay: cell-based or functional assay
Starred links: 1 amine or outer side, 2 acyl side, 3 side chain; linkers in the order of their positions; H or OH if unused. Non-standard residues stand in square brackets, D forms with d. *: point of attachment. C18 diacid = O=C(O)CCCCCCCCCCCCCCCCC(=O)*; γGlu = O=C(O)[C@H](CCC(=O)[*:2])N[*:1]; Nle = CCCC[C@H](N)C(=O)O; AEEA = NCCOCCOCC(=O)O
attribute.measured: hIP1 GRPR EC50 (nM)
Just the number in nM, nothing appended.

Could you share which hIP1 GRPR EC50 value was measured for {C18 diacid}-[γGlu][AEEA][AEEA]RNHWAV[dA]HL[Nle]-NH2 (SMILES CCCC[C@H](NC(=O)[C@H](CC(C)C)NC(=O)[C@H](Cc1c[nH]cn1)NC(=O)[C@@H](C)NC(=O)[C@@H](NC(=O)[C@H](C)NC(=O)[C@H](Cc1c[nH]c2ccccc12)NC(=O)[C@H](Cc1c[nH]cn1)NC(=O)[C@H](CC(N)=O)NC(=O)[C@H](CCCNC(=N)N)NC(=O)COCCOCCNC(=O)COCCOCCNC(=O)CC[C@H](NC(=O)CCCCCCCCCCCCCCCCC(=O)O)C(=O)O)C(C)C)C(N)=O) [Peptide 145] ?
5.2
